Entries and their pKd values follow.
Target: T1, mouse programmed cell death protein 1 Fc fusion protein (mPD-1-Fc), mPD-1 C60S (aa 25-167) (Mus musculus, UniProt Q02242, stabilised)
T1 construct: not cleaved; source: Expi293F, purified (Protein A, SEC; dimeric fraction); not shown: Fc (human), C-terminal, kept
Assay: SPR; Carterra LSA; Fab from the ammonium sulfate precipitate of the culture supernatant immobilised on a NiHC200M chip; hPD-1 (1-1024 nM) or mPD-1-Fc (4-1024 nM) as analyte, fourfold dilution series, no regeneration; HBS-EP pH 7.4, 25 °C; medians over the spots of a construct, KD = koff/kon
Conditions: one partner purified
// field semantics: pKd = negative decimal log of concentration (mol/L)

Solved cases (3 shown):
1) toripalimab Fab L.P100T (Fab, V domains shown, as the heavy chain of Sm3; light chain of Sm3 with this change; numbers count from the chain's first residue; source: Brevibacillus, culture supernatant (ammonium sulfate precipitate); not shown: 6xHis, C-terminal, kept; 6xHN, C-terminal, kept) VH: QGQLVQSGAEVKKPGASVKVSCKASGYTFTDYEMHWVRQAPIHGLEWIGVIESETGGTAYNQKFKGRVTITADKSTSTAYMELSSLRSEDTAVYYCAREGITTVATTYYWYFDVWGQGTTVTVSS VL: DVVMTQSPLSLPVTLGQPASISCRSSQSIVHSNGNTYLEWYLQKPGQSPQLLIYKVSNRFSGVPDRFSGSGSGTDFTLKISRVEAEDVGVYYCFQGSHVTLTFGQGTKLEIK    7.71
2) toripalimab Fab L.S26Y (Fab, V domains shown, as the heavy chain of Sm3; light chain of Sm3 with this change; numbers count from the chain's first residue; source: Brevibacillus, culture supernatant (ammonium sulfate precipitate); not shown: 6xHis, C-terminal, kept; 6xHN, C-terminal, kept) VH: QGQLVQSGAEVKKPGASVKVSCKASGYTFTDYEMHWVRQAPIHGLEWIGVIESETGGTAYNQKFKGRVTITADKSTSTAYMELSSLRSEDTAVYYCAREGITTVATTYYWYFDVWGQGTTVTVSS VL: DVVMTQSPLSLPVTLGQPASISCRSYQSIVHSNGNTYLEWYLQKPGQSPQLLIYKVSNRFSGVPDRFSGSGSGTDFTLKISRVEAEDVGVYYCFQGSHVPLTFGQGTKLEIK    6.82
3) toripalimab Fab L.Q95A (Fab, V domains shown, as the heavy chain of Sm3; light chain of Sm3 with this change; numbers count from the chain's first residue; source: Brevibacillus, culture supernatant (ammonium sulfate precipitate); not shown: 6xHis, C-terminal, kept; 6xHN, C-terminal, kept) VH: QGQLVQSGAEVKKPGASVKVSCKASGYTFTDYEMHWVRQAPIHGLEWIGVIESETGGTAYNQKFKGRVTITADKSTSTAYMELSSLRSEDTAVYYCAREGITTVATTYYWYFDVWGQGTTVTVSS VL: DVVMTQSPLSLPVTLGQPASISCRSSQSIVHSNGNTYLEWYLQKPGQSPQLLIYKVSNRFSGVPDRFSGSGSGTDFTLKISRVEAEDVGVYYCFAGSHVPLTFGQGTKLEIK    6.89

Task: Give the measured pKd of toripalimab Fab L.F94A (Fab, V domains shown, as the heavy chain of Sm3; light chain of Sm3 with this change; numbers count from the chain's first residue; source: Brevibacillus, culture supernatant (ammonium sulfate precipitate); not shown: 6xHis, C-terminal, kept; 6xHN, C-terminal, kept) VH: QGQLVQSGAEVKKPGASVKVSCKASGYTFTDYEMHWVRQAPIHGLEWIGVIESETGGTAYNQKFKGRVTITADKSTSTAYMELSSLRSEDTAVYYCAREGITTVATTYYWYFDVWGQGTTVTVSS VL: DVVMTQSPLSLPVTLGQPASISCRSSQSIVHSNGNTYLEWYLQKPGQSPQLLIYKVSNRFSGVPDRFSGSGSGTDFTLKISRVEAEDVGVYYCAQGSHVPLTFGQGTKLEIK .
Result: 6.75

Task: Now consider toripalimab Fab H.D31A (Fab, V domains shown, heavy chain of Sm3 with this change; numbers count from the chain's first residue; as the light chain of Sm3; source: Brevibacillus, culture supernatant (ammonium sulfate precipitate); not shown: 6xHis, C-terminal, kept; 6xHN, C-terminal, kept) VH: QGQLVQSGAEVKKPGASVKVSCKASGYTFTAYEMHWVRQAPIHGLEWIGVIESETGGTAYNQKFKGRVTITADKSTSTAYMELSSLRSEDTAVYYCAREGITTVATTYYWYFDVWGQGTTVTVSS VL: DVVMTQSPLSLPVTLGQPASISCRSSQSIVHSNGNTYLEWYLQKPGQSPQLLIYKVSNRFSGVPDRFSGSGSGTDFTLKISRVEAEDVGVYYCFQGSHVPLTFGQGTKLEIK and answer again.
Result: 6.69

Task: Now consider toripalimab Fab L.P100I (Fab, V domains shown, as the heavy chain of Sm3; light chain of Sm3 with this change; numbers count from the chain's first residue; source: Brevibacillus, culture supernatant (ammonium sulfate precipitate); not shown: 6xHis, C-terminal, kept; 6xHN, C-terminal, kept) VH: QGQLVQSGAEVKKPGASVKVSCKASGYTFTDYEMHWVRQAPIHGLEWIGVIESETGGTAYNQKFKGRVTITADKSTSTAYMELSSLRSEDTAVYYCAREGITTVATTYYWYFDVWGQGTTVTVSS VL: DVVMTQSPLSLPVTLGQPASISCRSSQSIVHSNGNTYLEWYLQKPGQSPQLLIYKVSNRFSGVPDRFSGSGSGTDFTLKISRVEAEDVGVYYCFQGSHVILTFGQGTKLEIK and answer again.
Result: 7.63

The reported numbers originate from paper PMC10663500.
